The origin of these recorded values is patent US20080045489A1.

Target: CXCR2 (Homo sapiens, UniProt P25025)
Construct: expressed in transfected cells; host or cells: Ba/F3 (Baf3) cells; membranes, clone designation [Hi70]
Sequence (P25025 1-360): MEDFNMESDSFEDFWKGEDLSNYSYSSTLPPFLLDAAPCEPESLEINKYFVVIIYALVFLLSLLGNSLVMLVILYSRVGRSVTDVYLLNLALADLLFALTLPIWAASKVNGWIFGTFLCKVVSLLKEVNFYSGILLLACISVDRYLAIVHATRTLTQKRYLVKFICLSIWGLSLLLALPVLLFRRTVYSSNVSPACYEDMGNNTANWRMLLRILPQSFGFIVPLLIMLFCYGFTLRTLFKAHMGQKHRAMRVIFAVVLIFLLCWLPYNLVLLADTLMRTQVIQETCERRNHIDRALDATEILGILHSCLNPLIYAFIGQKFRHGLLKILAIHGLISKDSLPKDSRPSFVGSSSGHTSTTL
Assay: [35S]GTPγS Binding Assay: inhibition of agonist (GROα) stimulated [35S]GTPγS exchange in membranes expressing CXCR2
Type: biochemical
Conditions: 1 h; 3 nM compound; Baf3/hCXCR2 membranes; percent inhibition at highest chemokine (hGROα) concentration 500 nM; control (no compound) = 0%, standard = 100%; read-out: % Inhibition GTPyS
parameter: inhibition at 0.003 µM (%)

smi | unit_of_measurement | recorded_measurement
CC[C@@H](Nc1c(Nc2cccc(C(=O)N(C)C)c2O)c(=O)c1=O)c1cc(C2CCCC2)c(C)o1 | % | 109
CC[C@@H](Nc1c(Nc2cccc(C(=O)N3CCOCC3)c2O)c(=O)c1=O)c1cc(C2CC2)c(C)o1 | % | 103
CC[C@@H](Nc1c(Nc2cccc(C(=O)N(C)C)c2O)c(=O)c1=O)c1cc(Br)c(C)o1 | % | 122
CCc1oc([C@@H](CC)Nc2c(Nc3cccc(C(=O)N(C)C)c3O)c(=O)c2=O)cc1Br | % | 99
CC[C@@H](Nc1c(Nc2cccc(C(=O)N3CCOCC3)c2O)c(=O)c1=O)c1cc(Br)c(C)o1 | % | 114
CC[C@@H](Nc1c(Nc2cccc(C(=O)N(C)C)c2O)c(=O)c1=O)c1cc(C2CC2)c(C)o1 | % | 107
CC[C@@H](Nc1c(Nc2cccc(C(=O)N3CCC3)c2O)c(=O)c1=O)c1cc(C2CC2)c(C)o1 | % | 115
CC[C@@H](Nc1c(Nc2cccc(C(=O)N3CC[C@H](O)C3)c2O)c(=O)c1=O)c1cc(Br)c(C)o1 | % | 119
CC[C@@H](Nc1c(Nc2cccc(C(=O)N3CC[C@@H](O)C3)c2O)c(=O)c1=O)c1cc(Br)c(C)o1 | % | 101
CC[C@@H](Nc1c(Nc2cccc(C(=O)N3CCC3)c2O)c(=O)c1=O)c1cc(C(C)C)c(C)o1 | % | 100
CC[C@@H](Nc1c(Nc2cccc(C(=O)N(C)C)c2O)c(=O)c1=O)c1cc(C(C)C)c(Br)o1 | % | 109
CC[C@@H](Nc1c(Nc2cccc(C(=O)N3CCOCC3)c2O)c(=O)c1=O)c1cc(C(C)C)c(C)o1 | % | 137
CC[C@@H](Nc1c(Nc2cccc(C(=O)N3CCCC3)c2O)c(=O)c1=O)c1cc(C(C)C)c(C)o1 | % | 132
CC[C@@H](Nc1c(Nc2cccc(C(=O)N(C)C)c2O)c(=O)c1=O)c1cc(Cl)c(C)o1 | % | 120
CC[C@@H](Nc1c(Nc2cccc(C(=O)N(C)C)c2O)c(=O)c1=O)c1cc(C(C)C)c(C)o1 | % | 112
